- test.details: in vitro
- condition.label: rat, microsomes
Exam item: assign satisfied to entries whose microsomal CLint is below 10 µL/min/mg and not satisfied to entries at or above 10 µL/min/mg. Note that a value of exactly 10 µL/min/mg receives not satisfied.

Regarding CCc1c(F)ccc2cc(O)cc(-c3ncc4c(N5CCC[C@@](C)(O)C5)nc(OCC5(CN6CCC(Oc7cc([C@H](C(=O)N8C[C@H](O)C[C@H]8C(=O)N[C@@H](C)c8ccc(-c9scnc9C)cc8)C(C)C)on7)CC6)CC5)nc4c3F)c12 , kindly confirm whether its microsomal CLint is beneath 10 µL/min/mg. not satisfied

Regarding CCc1c(F)ccc2cc(O)cc(-c3ncc4c(N5CCC[C@@](C)(O)C5)nc(OCC5(CN6CCC(COc7ccc(-c8cn([C@H](C(=O)N9C[C@H](O)C[C@H]9C(=O)N[C@@H](C)c9ccc(-c%10scnc%10C)cc9)C(C)C)nn8)cc7)CC6)CC5)nc4c3F)c12 , kindly confirm whether its microsomal CLint is beneath 10 µL/min/mg. satisfied

Regarding C=C1CN2[C@H](COc3ccc(-c4cn([C@H](C(=O)N5C[C@H](O)C[C@H]5C(=O)N[C@@H](C)c5ccc(-c6scnc6C)cc5)C(C)C)nn4)cn3)CC[C@@]2(COc2nc(N3CCC[C@@](C)(O)C3)c3cnc(-c4cc(O)cc5ccc(F)c(CC)c45)c(F)c3n2)C1 , kindly confirm whether its microsomal CLint is beneath 10 µL/min/mg. satisfied

Regarding CCc1c(F)ccc2cc(O)cc(-c3ncc4c(N5CCC[C@@](C)(O)C5)nc(OCC5(CN6CCN(c7cnc(-c8cn([C@H](C(=O)N9C[C@H](O)C[C@H]9C(=O)N[C@@H](C)c9ccc(-c%10scnc%10C)cc9)C(C)C)nn8)cn7)CC6)CC5)nc4c3F)c12 , kindly confirm whether its microsomal CLint is beneath 10 µL/min/mg. satisfied

Regarding CCc1c(F)ccc2cc(O)cc(-c3ncc4c(N5CCC[C@@](C)(O)C5)nc(OCC5(CN6CCC(Oc7cnc(-c8cn([C@H](C(=O)N9C[C@H](O)C[C@H]9C(=O)N[C@@H](C)c9ccc(-c%10scnc%10C)cc9)C(C)C)nn8)cn7)CC6)CC5)nc4c3F)c12 , kindly confirm whether its microsomal CLint is beneath 10 µL/min/mg. satisfied

Regarding CCc1c(F)ccc2cc(O)cc(-c3ncc4c(N5CCC[C@@](C)(O)C5)nc(OCC5(CN6CCC(OCc7ccc(-c8cn([C@H](C(=O)N9C[C@H](O)C[C@H]9C(=O)N[C@@H](C)c9ccc(-c%10scnc%10C)cc9)C(C)C)nn8)cc7)CC6)CC5)nc4c3F)c12 , kindly confirm whether its microsomal CLint is beneath 10 µL/min/mg. not satisfied

Regarding CCc1c(F)ccc2cc(O)cc(-c3ncc4c(N5CCCC(C)(O)C5)nc(OC[C@]56CCCN5[C@@H](COC(=O)N5CCC7(CC5)CC(C(=O)N[C@H](C(=O)N5C[C@H](O)C[C@H]5C(=O)N[C@@H](C)c5ccc(-c8scnc8C)cc5)C(C)(C)C)C7)CC6)nc4c3F)c12 (stereo partly shown) , kindly confirm whether its microsomal CLint is beneath 10 µL/min/mg. not satisfied

* * *

- test.details: in vitro
- condition.label: human, microsomes
measurement.label: microsomal CLint
A bare number is not enough; add the unit after it.

CCc1c(F)ccc2cc(O)cc(-c3ncc4c(N5CCC[C@@](C)(O)C5)nc(OCC5(CN6CCN(CC7CCN(c8cc([C@H](C(=O)N9C[C@H](O)C[C@H]9C(=O)N[C@@H](C)c9ccc(-c%10scnc%10C)cc9)C(C)C)on8)CC7)CC6)CC5)nc4c3F)c12	21.7 µL/min/mg

Consider the record given below.
Given CCc1c(F)ccc2cc(O)cc(-c3ncc4c(N5CCC[C@@](C)(O)C5)nc(OCC5(CN6CCC(n7cc(-c8cn([C@H](C(=O)N9C[C@H](O)C[C@H]9C(=O)N[C@@H](C)c9ccc(-c%10scnc%10C)cc9)C(C)C)nn8)cn7)CC6)CC5)nc4c3F)c12 , respond with its microsomal CLint. 11.2 µL/min/mg

* * *

- assay.target: KRAS G12D (Homo sapiens, UniProt P01116, G12D)
- Sequence (P01116 1-188 isoform P01116-2 G12D): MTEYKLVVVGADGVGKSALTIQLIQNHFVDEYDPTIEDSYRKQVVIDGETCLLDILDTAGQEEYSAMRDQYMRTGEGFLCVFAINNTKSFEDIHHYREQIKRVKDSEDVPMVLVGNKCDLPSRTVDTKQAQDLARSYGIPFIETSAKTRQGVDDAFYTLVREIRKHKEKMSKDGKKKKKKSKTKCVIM
measurement.label: DC50 (nM)
Entry rule: numbers only, all in nM.

Known DC50 results, listed for orientation:
C=C1CN2[C@H](COc3cc(-c4cn([C@H](C(=O)N5C[C@H](O)C[C@H]5C(=O)N[C@@H](C)c5ccc(-c6scnc6C)cc5)C(C)C)nn4)ccn3)CC[C@@]2(COc2nc(N3CCC[C@@](C)(O)C3)c3cnc(-c4cc(O)cc5ccc(F)c(CC)c45)c(F)c3n2)C1	30
CCc1c(F)ccc2cc(O)cc(-c3ncc4c(N5CCC[C@@](C)(O)C5)nc(OCC5(CN6CCN(c7ccc(-c8cn([C@H](C(=O)N9C[C@H](O)C[C@H]9C(=O)N[C@@H](C)c9ccc(-c%10scnc%10C)cc9)C(C)C)nn8)cn7)CC6)CC5)nc4c3F)c12	6.3
CCc1c(F)ccc2cc(O)cc(-c3ncc4c(N5CCC[C@@](C)(O)C5)nc(OC[C@]56CCCN5[C@@H](COc5ccc(-c7cn([C@H](C(=O)N8C[C@H](O)C[C@H]8C(=O)N[C@@H](C)c8ccc(-c9scnc9C)cc8)C(C)C)nn7)cn5)CC6)nc4c3F)c12	7.7
CCc1c(F)ccc2cc(O)cc(-c3ncc4c(N5CCC[C@@](C)(O)C5)nc(OCC5(CN6CCC(CN7CCN(c8cc([C@H](C(=O)N9C[C@H](O)C[C@H]9C(=O)N[C@@H](C)c9ccc(-c%10scnc%10C)cc9)C(C)C)on8)CC7)CC6)CC5)nc4c3F)c12	27

Jot down DC50 (KRAS G12D (Homo sapiens, UniProt P01116, G12D)) of CCc1c(F)ccc2cc(O)cc(-c3ncc4c(N5CCC[C@@](C)(O)C5)nc(OCC5(CN6CCN(c7cnc(-c8cn([C@H](C(=O)N9C[C@H](O)C[C@H]9C(=O)N[C@@H](C)c9ccc(-c%10scnc%10C)cc9)C(C)C)nn8)cn7)CC6)CC5)nc4c3F)c12 . 5.9

Jot down DC50 (KRAS G12D (Homo sapiens, UniProt P01116, G12D)) of CCc1c(F)ccc2cc(O)cc(-c3ncc4c(N5CCC[C@@](C)(O)C5)nc(OCC5(CN6CCC(N7CCC(c8cn([C@H](C(=O)N9C[C@H](O)C[C@H]9C(=O)N[C@@H](C)c9ccc(-c%10scnc%10C)cc9)C(C)C)nn8)CC7)CC6)CC5)nc4c3F)c12 . 37

Jot down DC50 (KRAS G12D (Homo sapiens, UniProt P01116, G12D)) of CCc1c(F)ccc2cc(O)cc(-c3ncc4c(N5CCC[C@@](C)(O)C5)nc(OC[C@]56CCCN5[C@@H](COc5ncc(-c7cn([C@H](C(=O)N8C[C@H](O)C[C@H]8C(=O)N[C@@H](C)c8ccc(-c9scnc9C)cc8)C(C)C)nn7)cn5)CC6)nc4c3F)c12 . 4.1

* * *

- test.details: in vitro
- condition.label: mouse, microsomes
Decision: microsomal CLint compared against 10 µL/min/mg; not below it gives yes (1), below it gives no (0).

CCc1c(F)ccc2cc(O)cc(-c3ncc4c(N5CCC[C@@](C)(O)C5)nc(OCC5(CN6CCC(c7ccc(-c8cn([C@H](C(=O)N9C[C@H](O)C[C@H]9C(=O)N[C@@H](C)c9ccc(-c%10scnc%10C)cc9)C(C)C)nn8)cc7)CC6)CC5)nc4c3F)c12	no (0)
CCc1c(F)ccc2cc(O)cc(-c3ncc4c(N5CCC[C@@](C)(O)C5)nc(OCC5(CN6CCN(c7cnc(-c8cn([C@H](C(=O)N9C[C@H](O)C[C@H]9C(=O)N[C@@H](C)c9ccc(-c%10scnc%10C)cc9)C(C)C)nn8)cn7)CC6)CC5)nc4c3F)c12	no (0)
CCc1c(F)ccc2cc(O)cc(-c3ncc4c(N5CCC[C@@](C)(O)C5)nc(OCC5(CN6CCC(Oc7cc(-c8cn([C@H](C(=O)N9C[C@H](O)C[C@H]9C(=O)N[C@@H](C)c9ccc(-c%10scnc%10C)cc9)C(C)C)nn8)ccn7)CC6)CC5)nc4c3F)c12	yes (1)

Does the reported microsomal CLint for CCc1c(F)ccc2cc(O)cc(-c3ncc4c(N5CCC[C@@](C)(O)C5)nc(OCC5(CN6CCC(OCc7ccc(-c8cn([C@H](C(=O)N9C[C@H](O)C[C@H]9C(=O)N[C@@H](C)c9ccc(-c%10scnc%10C)cc9)C(C)C)nn8)cc7)CC6)CC5)nc4c3F)c12 fall at or above the 10 µL/min/mg mark? no (0)

Does the reported microsomal CLint for C=C1CN2[C@H](COc3ccc(-c4cn([C@H](C(=O)N5C[C@H](O)C[C@H]5C(=O)N[C@@H](C)c5ccc(-c6scnc6C)cc5)C(C)C)nn4)cn3)CC[C@@]2(COc2nc(N3CCC[C@@](C)(O)C3)c3cnc(-c4cc(O)cc5ccc(F)c(CC)c45)c(F)c3n2)C1 fall at or above the 10 µL/min/mg mark? yes (1)

Does the reported microsomal CLint for CCc1c(F)ccc2cc(O)cc(-c3ncc4c(N5CCC[C@@](C)(O)C5)nc(OCC5(CN6CCC(Oc7ccc(-c8cn([C@H](C(=O)N9C[C@H](O)C[C@H]9C(=O)N[C@@H](C)c9ccc(-c%10scnc%10C)cc9)C(C)C)nn8)cn7)CC6)CC5)nc4c3F)c12 fall at or above the 10 µL/min/mg mark? yes (1)

Does the reported microsomal CLint for C=C1CN2[C@H](COCc3ccc(-c4cn([C@H](C(=O)N5C[C@H](O)C[C@H]5C(=O)N[C@@H](C)c5ccc(-c6scnc6C)cc5)C(C)C)nn4)cc3)CC[C@@]2(COc2nc(N3CCC[C@@](C)(O)C3)c3cnc(-c4cc(O)cc5ccc(F)c(CC)c45)c(F)c3n2)C1 fall at or above the 10 µL/min/mg mark? yes (1)

Does the reported microsomal CLint for CCc1c(F)ccc2cc(O)cc(-c3ncc4c(N5CCC[C@@](C)(O)C5)nc(OCC5(CN6CCC7(CC6)CN(c6ccc(-c8cn([C@H](C(=O)N9C[C@H](O)C[C@H]9C(=O)N[C@@H](C)c9ccc(-c%10scnc%10C)cc9)C(C)C)nn8)cc6)C7)CC5)nc4c3F)c12 fall at or above the 10 µL/min/mg mark? no (0)
